Entry source: paper PMC5471521

assay: PK analysis in male Sprague-Dawley rats; assay type: in vivo; settings: male, Sprague-Dawley, plasma, po; rat, p.o. 2 mg/kg, hydrochloride salt forms

- MOLECULE: "NC(=O)c1ccc(OCCNC[C@H](O)COc2ccc3c(c2)OC[C@@H](COCC2CC2)O3)cc1 [NDD-713]"
  Cmax, nM: 200
- MOLECULE: "O=C1NCc2cc(OCCNC[C@H](O)COc3ccc4c(c3)OC[C@@H](COCC3CC3)O4)ccc21 [NDD-825]"
  Cmax, nM: 100

* * *

experiment: Seven-day oral dose range rat toxicity study; format: in vivo; conditions: male, Crl:CD, in vivo, 7-d repeat oral dosing, read-out: Maximum tolerated dose

- MOL SMILES: "O=C1NCc2cc(OCCNC[C@H](O)COc3ccc4c(c3)OC[C@@H](COCC3CC3)O4)ccc21"
  MTD at 7 d: "> 300 mg/kg/day"

* * *

Assay: PK analysis in male Sprague-Dawley rats
Assay type: in vivo
Conditions: male, Sprague-Dawley, plasma, iv; rat, i.v. 20 mg/kg, hydrochloride salt forms; read-out: Plasma CLtotal
Procedure: Blood samples were centrifuged, supernatant plasma was removed, and plasma concentrations of compounds were determined by LC-MS. […] Studies were carried out by CDCO.
# key: entry, value: clearance
VALUE KIND: clearance (mL/min/kg)

- MOL SMILES: "NC(=O)c1ccc(OCCNC[C@H](O)COc2ccc3c(c2)OC[C@@H](COCC2CC2)O3)cc1"
  VALUE KIND: "clearance"
  VALUE REPORTED: 51
- MOL SMILES: "O=C1NCc2cc(OCCNC[C@H](O)COc3ccc4c(c3)OC[C@@H](COCC3CC3)O4)ccc21"
  VALUE KIND: "clearance"
  VALUE REPORTED: 55

* * *

molecular target: human β2-AR (Homo sapiens); construct: expressed in transfected cells; assay: 3H-CGP12177 whole-cell binding in CHO-β2 cells; details: mean ± SEM, cells marked ^a are apparent log Kd (specific binding not fully inhibited)
Sequence (P07550 whole entry): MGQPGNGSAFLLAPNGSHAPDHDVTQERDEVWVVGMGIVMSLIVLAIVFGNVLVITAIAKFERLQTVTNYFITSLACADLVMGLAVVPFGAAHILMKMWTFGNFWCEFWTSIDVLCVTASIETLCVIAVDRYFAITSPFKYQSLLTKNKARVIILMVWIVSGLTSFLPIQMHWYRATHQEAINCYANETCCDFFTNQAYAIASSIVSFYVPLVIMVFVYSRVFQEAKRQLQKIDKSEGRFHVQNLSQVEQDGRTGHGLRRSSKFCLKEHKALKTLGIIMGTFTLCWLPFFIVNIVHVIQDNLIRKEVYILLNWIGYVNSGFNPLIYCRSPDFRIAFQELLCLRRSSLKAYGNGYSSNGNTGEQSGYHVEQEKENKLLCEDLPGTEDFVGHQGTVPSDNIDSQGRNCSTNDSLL

- COMPOUND: "O=C1NCc2cc(OCCNC[C@H](O)COc3ccc4c(c3)OC[C@@H](COCC3CC3)O4)ccc21 [NDD-825]"
  Kd: "5.37 µM"
- COMPOUND: "N#Cc1cc(OCCOCC2CC2)ccc1OCC(O)CNCCNC(=O)Nc1ccc(O)cc1 (stereo not drawn) [LK204-545, reference compound]"
  Kd: "5.01 µM"
- COMPOUND: "NC(=O)c1ccc(OCCNC[C@H](O)COc2ccc3c(c2)OC[C@@H](COCC2CC2)O3)cc1 [NDD-713]"
  Kd: "8.91 µM"

* * *

assay: PK analysis in male Sprague-Dawley rats; format: in vivo; settings: male, Sprague-Dawley, rat, plasma, po, 20 mg/kg

- MOL SMILES: "O=C1NCc2cc(OCCNC[C@H](O)COc3ccc4c(c3)OC[C@@H](COCC3CC3)O4)ccc21"
  bioavailability (%): 89
- MOL SMILES: "NC(=O)c1ccc(OCCNC[C@H](O)COc2ccc3c(c2)OC[C@@H](COCC2CC2)O3)cc1"
  bioavailability (%): 44

* * *

test: Bidirectional CaCo-2 permeability; assay type: in vitro ADME; settings: human, Caco-2, pH 7.4; hydrochloride salts used; read-out: Efflux ratio Papp, B-A/Papp, A-B

- MOL SMILES: "O=C1NCc2cc(OCCNC[C@H](O)COc3ccc4c(c3)OC[C@@H](COCC3CC3)O4)ccc21"
  efflux ratio at 90 min, 20 µM: "< 3"
- MOL SMILES: "NC(=O)c1ccc(OCCNC[C@H](O)COc2ccc3c(c2)OC[C@@H](COCC2CC2)O3)cc1"
  efflux ratio at 90 min, 20 µM: "< 3"
